Values from ChEMBL document CHEMBL4145507

Study System: Estrogen receptor (Homo sapiens)
Sequence (P03372 whole entry): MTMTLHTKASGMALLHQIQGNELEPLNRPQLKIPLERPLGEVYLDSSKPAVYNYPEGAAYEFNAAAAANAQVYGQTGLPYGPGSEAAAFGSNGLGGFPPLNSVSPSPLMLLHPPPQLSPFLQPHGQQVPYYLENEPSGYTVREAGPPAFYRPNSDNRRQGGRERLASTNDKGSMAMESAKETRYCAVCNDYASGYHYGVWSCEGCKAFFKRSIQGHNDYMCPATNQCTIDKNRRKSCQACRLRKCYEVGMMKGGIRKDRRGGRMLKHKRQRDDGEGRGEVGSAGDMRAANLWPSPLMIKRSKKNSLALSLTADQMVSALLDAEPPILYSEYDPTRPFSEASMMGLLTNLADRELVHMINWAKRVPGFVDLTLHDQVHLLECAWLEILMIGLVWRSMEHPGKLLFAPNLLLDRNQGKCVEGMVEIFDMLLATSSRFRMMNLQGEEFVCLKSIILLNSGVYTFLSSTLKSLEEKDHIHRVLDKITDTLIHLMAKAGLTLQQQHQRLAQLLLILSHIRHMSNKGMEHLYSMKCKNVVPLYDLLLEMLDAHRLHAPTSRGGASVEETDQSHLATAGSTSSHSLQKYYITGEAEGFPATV
Test Method Notes: Displacement of fluoromone TM from recombinant human ERalpha after 2 hrs by fluorescence polarization analysis
pIC50: −log10 of the molar value.
The threshold is inclusive: pIC50 of exactly 7 counts as TRUE; values below receive FALSE.

Below are worked cases with known answers.
c1ccc2[nH]c(C3=Nc4cccc5cccc(c45)N3)cc2c1	FALSE
O=C(c1ccccc1)c1ccc2[nH]c(-c3cc4ccccc4[nH]3)nc2c1	TRUE
c1ccc(Cn2c(-c3nc4ccccc4[nH]3)cc3ccccc32)cc1	FALSE

Hi, just wondering whether "Cc1cccc2[nH]c(-c3cc4ccccc4n3Cc3ccccc3)nc12" shows pIC50 of 7 or higher.
FALSE

What do you get for BrC1=CN2NC(c3cc4ccccc4n3Cc3ccccc3)=NC2N=C1 (stereo unspecified) ?
FALSE

What do you get for "Cc1cc(C)c2nc(-c3cc4ccccc4n3Cc3ccccc3)[nH]c2c1" ?
TRUE

What do you get for "Brc1cnc2[nH]c(-c3cc4ccccc4n3Cc3ccccc3)nc2c1" ?
FALSE

What do you get for "Cc1cccc2[nH]c(-c3cc4ccccc4[nH]3)nc12" ?
FALSE
